# SYSTEM_NAME: Muscarinic acetylcholine receptor M1 (Homo sapiens) (UniProt P11229)
# Sequence (whole entry): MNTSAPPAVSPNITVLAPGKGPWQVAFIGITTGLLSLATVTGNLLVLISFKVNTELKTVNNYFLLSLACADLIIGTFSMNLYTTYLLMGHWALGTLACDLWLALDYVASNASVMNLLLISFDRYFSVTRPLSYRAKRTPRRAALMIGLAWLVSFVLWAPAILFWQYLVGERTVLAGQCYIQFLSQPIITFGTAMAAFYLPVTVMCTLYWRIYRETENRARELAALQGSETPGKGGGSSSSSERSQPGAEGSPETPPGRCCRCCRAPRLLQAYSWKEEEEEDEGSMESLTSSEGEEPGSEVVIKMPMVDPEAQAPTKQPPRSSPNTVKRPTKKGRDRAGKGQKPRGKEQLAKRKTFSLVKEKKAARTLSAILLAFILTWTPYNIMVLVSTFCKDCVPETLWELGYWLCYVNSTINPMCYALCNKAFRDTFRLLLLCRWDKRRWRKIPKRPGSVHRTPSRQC
# ASSAY_NAME: Antagonist activity at human muscarinic M1 receptor
# Type: functional
# Set-up: concentration or dose not given beside the values
Assignment: determine reported Activity for the given compounds.

                                   compound                               system_name   measure  result
0  O=C(C(Cc1ccccc1)c1ccccc1)N1CCNCC1 (stereo unspecified)  Muscarinic acetylcholine receptor M1 (Homo sapiens) (UniProt P11229)  Activity   26.1%
1  O=C(C(Cc1ccccc1)c1ccccc1)N1CCN(c2ccncc2)CC1 (stereo unspecified)  Muscarinic acetylcholine receptor M1 (Homo sapiens) (UniProt P11229)  Activity   28.5%
2  CCN1CCN(C(=O)C(Cc2ccccc2)c2ccccc2)CC1C (stereo unspecified)  Muscarinic acetylcholine receptor M1 (Homo sapiens) (UniProt P11229)  Activity    1.4%
3  O=C(C(Cc1ccccc1)c1ccccc1)N1CCCNCC1 (stereo unspecified)  Muscarinic acetylcholine receptor M1 (Homo sapiens) (UniProt P11229)  Activity   24.3%

State recorded Activity for all listed compounds.
1. CN1CCN(C(=O)C(Cc2ccccc2)c2ccccc2)C(c2ccccc2)C1 (stereo unspecified)
2. CN1CCN(C(=O)C(Cc2ccncc2)c2ccccc2)CC1 (stereo unspecified)
3. CN1CCN(C(=O)C(Cc2ccccc2)c2ccccc2)CC1c1ccccc1 (stereo unspecified)
4. CC(C)CN1CCN(C(=O)C(Cc2ccccc2)c2ccccc2)CC1 (stereo unspecified)
5. CN1CCN(C(=O)[C@](F)(Cc2ccccc2)c2ccccc2)CC1 (mixture of isomers)
6. CCN1CCN(C(=O)C(Cc2ccccc2)c2ccccc2)CC1(C)C (stereo unspecified)

1. 17.2%
2. 3.5%
3. 62.8%
4. 35.9%
5. 2.1%
6. 1.5%
